meta.source: patent US10851083B2

Molecular target: human PHD2181-417 (Homo sapiens (Human), UniProt Q9GZT9)
Sequence (Q9GZT9 181-417): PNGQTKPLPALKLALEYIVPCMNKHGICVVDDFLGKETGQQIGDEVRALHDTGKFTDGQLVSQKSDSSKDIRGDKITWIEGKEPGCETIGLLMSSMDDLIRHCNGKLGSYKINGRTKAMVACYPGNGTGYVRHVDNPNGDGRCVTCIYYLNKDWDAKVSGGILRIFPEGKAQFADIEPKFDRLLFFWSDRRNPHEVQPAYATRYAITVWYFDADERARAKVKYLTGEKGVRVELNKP
Experiment: PHD2 enzyme activity assay ([14C]-succinic acid production)
Format: biochemical
Settings: PHD2181-417 polypeptide, HIF-1α peptide 10 μM, [5-14C]-2-oxoglutaric acid; 30 min pre-incubation; tested 10 μM to 3 nM
readout_kind: Enzyme pIC50
Form rule: numeric answer, no unit written next to it.

# compound_string, readout_kind, experimental_value
measured = [
    ("O=C(O)c1cnn(-c2nc3cc(S(=O)(=O)CCc4ccccc4)c(Cl)cc3[nH]2)c1", "Enzyme pIC50", 7.4),
    ("O=C(O)c1cnn(-c2nc3cc(C(=O)NCc4ccccc4)ccc3[nH]2)c1", "Enzyme pIC50", 7.1),
    ("Cc1cccc(S(=O)(=O)c2cc3nc(-n4cc(C(=O)O)cn4)[nH]c3cc2Cl)c1", "Enzyme pIC50", 7.4),
    ("O=C(O)c1cnn(-c2nc3c(F)cccc3[nH]2)c1", "Enzyme pIC50", 6.2),
    ("O=C(O)c1cnn(-c2nc3cc(S(=O)(=O)Nc4ccccc4)c(Cl)cc3[nH]2)c1", "Enzyme pIC50", 7.4),
]

### Prompt Please give the measured Enzyme pIC50 for this compound: `CSc1cc2[nH]c(-n3cc(C(=O)O)cn3)nc2cc1C(F)(F)F`
### Response 7.1

* * *

Tested on: Hep-3B cells
Assay: Cellular assay: EPO secretion in Hep-3B cells
Type: cell-based, human
Conditions: 24 h, compound at 100 μM (10 μM or 100 μM), EPO secretion as percentage of control compound 7-[(4-Chloro-phenyl)-(5-methyl-isoxazol-3-ylamino)-methyl]-quinolin-8-ol
readout_kind: Cellular % EPO Stimulation
State the value, then name its unit.

Previously resolved entries follow.
# compound_string, experimental_value
measured = [
    ("Cc1c(Br)cc2nc(-n3cc(C(=O)O)cn3)[nH]c2c1C", "11.9%"),
    ("O=C(O)c1cnn(-c2nc3cc(-c4ccc(O)cc4)ccc3[nH]2)c1", "6.49%"),
    ("O=C(O)c1cnn(-c2nc3cc(-c4cccc(OCc5cccc(Cl)c5)c4)ccc3[nH]2)c1", "8.76%"),
    ("O=C(O)c1cnn(-c2nc3cc(-c4ccc(OCc5ccccc5)cc4)ccc3[nH]2)c1", "6.97%"),
]

### Prompt Please give the measured Cellular % EPO Stimulation for this molecule: `O=C(O)c1cnn(-c2nc3cc(-c4ccc(Cl)c(Cl)c4)ccc3[nH]2)c1`
### Response 15.3%

* * *

Target: human PHD2181-417 (Homo sapiens (Human), UniProt Q9GZT9)
Experiment: PHD2 enzyme activity assay ([14C]-succinic acid production);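 note: reaction ran 10 min with compound in Tris pH 7.5 buffer with catalase, DTT and ascorbate, labelled succinate freed of leftover 2-oxoglutarate by DNP precipitation, then beta counted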
Assay type: biochemical
Settings: PHD2181-417 polypeptide, HIF-1α peptide 10 μM, [5-14C]-2-oxoglutaric acid; 30 min pre-incubation; tested 10 μM to 3 nM
Quick reference for Enzyme pIC50 among some compounds
Form rule: numeric answer, no unit written next to it.

Previously resolved entries follow.
# compound_string, Enzyme pIC50
measured = [
    ("CN1CCN(CC(=O)Nc2cc3nc(-n4cc(C(=O)O)cn4)[nH]c3cc2Cl)CC1", 6.4),
    ("O=C(O)c1cnn(-c2nc3cc(Oc4ccc(Cl)cc4)c(Cl)cc3[nH]2)c1", 7.4),
    ("O=C(O)c1cnn(-c2nc3cc(SCc4ccc(Cl)c(Cl)c4)c(Cl)cc3[nH]2)c1", 6.4),
    ("O=C(O)c1cnn(-c2nc3cc(Oc4ccc(F)c(Cl)c4)c(Cl)cc3[nH]2)c1", 7.1),
    ("CC(C)Sc1cc2nc(-n3cc(C(=O)O)cn3)[nH]c2cc1F", 6.9),
]

### Prompt Write down the reported Enzyme pIC50 of `CC(C)S(=O)(=O)c1cc2[nH]c(-n3cc(C(=O)O)cn3)nc2cc1C(F)(F)F` , test system: human PHD2181-417 (Homo sapiens (Human), UniProt Q9GZT9).
### Response 7.4

### Prompt Next: `O=C(O)c1cnn(-c2nc3cc(N4CCOCC4)c(Cl)cc3[nH]2)c1`
### Response 6.6
